Hi there, I'd appreciate the recorded kinase still bound, per cent of control for every entry that follows.
Target: CDC42BPA (human)
Assay: KINOMEscan competition binding
Details: compound 10.0 µM
Give bare numbers, in %.

Consider the following illustrative entries.
- compound: "Cn1c(=O)n(-c2ccc(C(C)(C)C#N)cc2)c2c3cc(-c4cnc5ccccc5c4)ccc3ncc21"
  kinase still bound, per cent of control / %: 100
- compound: "O=C(NC1CC1)c1cccc(-c2ccc3c(NC(=O)C4CC4)n[nH]c3c2)c1"
  kinase still bound, per cent of control / %: 87
- compound: "COc1cc(N2CCN(C)CC2)ccc1Nc1nc(N)c(C(=O)c2c(Cl)cccc2Cl)s1"
  kinase still bound, per cent of control / %: 100

// each compound listed below needs its kinase still bound, per cent of control
1. Cc1ccc2nc(NCCN)c3ncc(C)n3c2c1
2. C=CC(=O)Nc1cc(NC(=O)c2ccc(C)c(NC(=O)c3ccno3)c2)cc(C(F)(F)F)c1
3. Cc1cc([C@@H](C)Nc2ccccc2C(=O)O)c2nc(N3CCOCC3)cc(=O)n2c1

A.
1. 85
2. 100
3. 96

* * *

Biological target: PRPF4B (human)
Experiment: KINOMEscan competition binding
Conditions: compound 10.0 µM
# note: exactly 90% is not below, so it is Not met; use Met for kinase still bound, per cent of control strictly under it

Please review the following examples before continuing.
- sample smiles: "CN(C)C/C=C/C(=O)Nc1cccc(Nc2ncc3c(n2)N(C)c2ccccc2C(=O)N3C)c1"
  qualitative label: "Not met"
- sample smiles: "O=C(NOC[C@H](O)CO)c1ccc(F)c(F)c1Nc1ccc(I)cc1F"
  qualitative label: "Met"
- sample smiles: "O=C(O)c1ccc(Nc2ncc3c(n2)-c2ccc(Cl)cc2C(c2c(F)cccc2F)=NC3)cc1"
  qualitative label: "Not met"

Q. Just wondering, is kinase still bound, per cent of control of `COc1cc(C(=O)NC2CCN(C)CC2)ccc1Nc1ncc2c(n1)N(C1CCCC1)CCC(=O)N2C(C)C` below 90%?
A. Not met

Q. I'd appreciate it if you could check whether `C[C@@H](Oc1cc(-n2cnc3ccc(CN4CCN(C)CC4)cc32)sc1C(N)=O)c1ccccc1C(F)(F)F` has kinase still bound, per cent of control smaller than 90%.
A. Met

Q. Lab log: compare recorded kinase still bound, per cent of control with 90%; is it strictly lower for `COc1cc(N2CCN(C)CC2)ccc1Nc1nc(N)c(C(=O)c2c(Cl)cccc2Cl)s1` ?
A. Not met

Q. Is it true that kinase still bound, per cent of control reported for `C=CC(=O)Nc1cc(NC(=O)c2ccc(C)c(NC(=O)c3ccno3)c2)cc(C(F)(F)F)c1` is less than 90%?
A. Not met

Q. Input `O=C(NC1CC1)c1cccc(-c2ccc3c(NC(=O)C4CC4)n[nH]c3c2)c1` ; condition: kinase still bound, per cent of control strictly below 90%. Does it hold?
A. Met

Q. For this compound, is kinase still bound, per cent of control lower than 90%? `Cn1c(=O)n(-c2ccc(C(C)(C)C#N)cc2)c2c3cc(-c4cnc5ccccc5c4)ccc3ncc21`
A. Not met

* * *

Kindly supply the reported kinase still bound, per cent of control values for the records listed here.
Molecular target: PKMYT1 (human) (UniProt Q99640)
Sequence (Q99640 whole entry, looked up): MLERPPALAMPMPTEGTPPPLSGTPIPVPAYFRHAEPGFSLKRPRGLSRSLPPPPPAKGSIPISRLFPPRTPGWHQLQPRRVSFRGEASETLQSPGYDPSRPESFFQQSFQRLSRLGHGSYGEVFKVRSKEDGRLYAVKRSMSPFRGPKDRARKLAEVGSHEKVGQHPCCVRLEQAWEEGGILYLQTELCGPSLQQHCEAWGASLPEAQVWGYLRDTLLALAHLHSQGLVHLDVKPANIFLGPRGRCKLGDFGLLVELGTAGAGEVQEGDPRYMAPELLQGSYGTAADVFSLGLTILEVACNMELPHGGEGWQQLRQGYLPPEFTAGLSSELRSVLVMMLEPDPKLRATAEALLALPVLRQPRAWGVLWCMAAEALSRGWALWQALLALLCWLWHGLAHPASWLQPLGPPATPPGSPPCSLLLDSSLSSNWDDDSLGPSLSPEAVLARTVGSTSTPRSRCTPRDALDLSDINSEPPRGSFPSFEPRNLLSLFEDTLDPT
Assay: KINOMEscan competition binding
Conditions: compound 10.0 µM
Numbers only, in %.

Some solved cases for reference:
- compound: "CCC(=O)N1CCN(c2ccc(-n3c(=O)ccc4cnc5ccc(-c6cnc7ccccc7c6)cc5c43)cc2C(F)(F)F)CC1"
  subject of test: "PKMYT1 (human) (UniProt Q99640)"
  kinase still bound, per cent of control / %: 52
- compound: "Cc1ccc(C(=O)Nc2cccc(C(F)(F)F)c2)cc1Nc1cncc(C(N)=O)c1"
  subject of test: "PKMYT1 (human) (UniProt Q99640)"
  kinase still bound, per cent of control / %: 100
- compound: "Cc1ccc(NC(=O)c2cccc(C(C)(C)C#N)c2)cc1Nc1ccc2ncn(C)c(=O)c2c1"
  subject of test: "PKMYT1 (human) (UniProt Q99640)"
  kinase still bound, per cent of control / %: 98
- compound: "C=CC(=O)Nc1cccc(Oc2nc(Nc3ccc(N4CCN(C)CC4)cc3OC)ncc2Cl)c1"
  subject of test: "PKMYT1 (human) (UniProt Q99640)"
  kinase still bound, per cent of control / %: 100
- compound: "CCOc1cc2ncc(C#N)c(Nc3ccc(OCc4ccccn4)c(Cl)c3)c2cc1NC(=O)/C=C/CN(C)C"
  subject of test: "PKMYT1 (human) (UniProt Q99640)"
  kinase still bound, per cent of control / %: 84
- compound: "CN(C)C/C=C/C(=O)Nc1cccc(Nc2ncc3c(n2)N(C)c2ccccc2C(=O)N3C)c1"
  subject of test: "PKMYT1 (human) (UniProt Q99640)"
  kinase still bound, per cent of control / %: 100
- compound: "COc1cc(C(=O)NC2CCN(C)CC2)ccc1Nc1ncc2c(n1)N(C1CCCC1)C(C)CC(=O)N2C (stereo unspecified)"
  subject of test: "PKMYT1 (human) (UniProt Q99640)"
  kinase still bound, per cent of control / %: 100
- compound: "C=CC(=O)Nc1cc(NC(=O)c2ccc(C)c(NC(=O)c3ccno3)c2)cc(C(F)(F)F)c1"
  subject of test: "PKMYT1 (human) (UniProt Q99640)"
  kinase still bound, per cent of control / %: 83
- compound: "OCCCNc1cc(-c2ccnc(Nc3cccc(Cl)c3)n2)ccn1"
  subject of test: "PKMYT1 (human) (UniProt Q99640)"
  kinase still bound, per cent of control / %: 100
- compound: "COc1cc(N2CCN(C)CC2)ccc1Nc1nc(N)c(C(=O)c2c(Cl)cccc2Cl)s1"
  subject of test: "PKMYT1 (human) (UniProt Q99640)"
  kinase still bound, per cent of control / %: 100

Hey, can you go through the list below and give me kinase still bound, per cent of control for every item?
1. Nc1ccc(-c2ccc3ncc4ccc(=O)n(-c5cccc(C(F)(F)F)c5)c4c3c2)cn1
2. Cc1ccc2nc(NCCN)c3ncc(C)n3c2c1
3. CCN1CCN(Cc2ccc(Nc3ncc4c(n3)N(C)c3ccccc3C(=O)N4C)cc2C(F)(F)F)CC1

A.
1. 94
2. 84
3. 100

For every listed record, write down its kinase still bound, per cent of control.
1. C=CC(=O)Nc1cccc(Nc2nc(N[C@H]3CC[C@H](N(C)C)CC3)nc3c2ncn3C(C)C)c1
2. N#Cc1c(NC(=O)c2cccc3ccccc23)sc2c1CCCC2
3. Cc1cc([C@@H](C)Nc2ccccc2C(=O)O)c2nc(N3CCOCC3)cc(=O)n2c1

A.
1. 93
2. 77
3. 100
